Reported IC50 values are given for each entry in this list.
- Tested System: AEP (Rattus norvegicus, UniProt Q9R0J8)
- Construct: endogenous in cells
- Sequence (Q9R0J8 18-435): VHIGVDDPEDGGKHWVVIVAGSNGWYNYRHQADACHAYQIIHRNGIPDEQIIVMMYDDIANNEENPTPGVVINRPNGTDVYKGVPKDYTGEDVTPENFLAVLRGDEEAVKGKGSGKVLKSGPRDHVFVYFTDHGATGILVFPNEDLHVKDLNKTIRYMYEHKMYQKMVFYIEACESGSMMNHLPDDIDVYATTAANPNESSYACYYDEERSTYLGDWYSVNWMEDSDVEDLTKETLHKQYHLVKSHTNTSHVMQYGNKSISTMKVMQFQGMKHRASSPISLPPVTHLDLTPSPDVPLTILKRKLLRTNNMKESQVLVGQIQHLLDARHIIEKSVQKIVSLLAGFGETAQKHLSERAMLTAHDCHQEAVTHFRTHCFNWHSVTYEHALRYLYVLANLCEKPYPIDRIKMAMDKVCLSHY
- Procedure Summary: AEP inhibition in cultured primary neurons
I only need the number, in nM, no unit after it.

Example results:
Compound	IC50 [nM]
OCc1cc(Nc2nnc(N3CCCC3)s2)c2nonc2c1N1CCOCC1 [11a-pentyl]	55
CNc1nnc(Nc2cc(CO)c(N3CCOCC3)c3nonc23)s1 [11a]	45

# ---- query compound ----
CC(C)Nc1nnc(Nc2cc(CO)c(N3CCOCC3)c3nonc23)s1 [11a-isopropyl] yielded IC50 of 63

* * *

- Procedure Summary: Solubility (pH 7.4, PBS)
- Format: physicochemical
- Reported Conditions: pH 7.4, aqueous buffer, pH7.4, read-out: Solubility (pH, media)
Listing of entries alongside the reported solubility.
Form entry: value (mM) — number only.

Molecule	solubility [mM]
CC(C)Nc1nnc(Nc2cc(CO)c(N3CCOCC3)c3nonc23)s1 [11a-isopropyl]	6.25

// switching to the query molecule
What the record says about OCc1cc(Nc2nnc(N3CCCC3)s2)c2nonc2c1N1CCOCC1 [11a-pentyl] : solubility is 12.5

* * *

- Tested System: P-glycoprotein (MDR1) (Homo sapiens)
- Construct: expressed in transfected cells; host or cells: MDCKII
- Sequence (P08183 whole entry): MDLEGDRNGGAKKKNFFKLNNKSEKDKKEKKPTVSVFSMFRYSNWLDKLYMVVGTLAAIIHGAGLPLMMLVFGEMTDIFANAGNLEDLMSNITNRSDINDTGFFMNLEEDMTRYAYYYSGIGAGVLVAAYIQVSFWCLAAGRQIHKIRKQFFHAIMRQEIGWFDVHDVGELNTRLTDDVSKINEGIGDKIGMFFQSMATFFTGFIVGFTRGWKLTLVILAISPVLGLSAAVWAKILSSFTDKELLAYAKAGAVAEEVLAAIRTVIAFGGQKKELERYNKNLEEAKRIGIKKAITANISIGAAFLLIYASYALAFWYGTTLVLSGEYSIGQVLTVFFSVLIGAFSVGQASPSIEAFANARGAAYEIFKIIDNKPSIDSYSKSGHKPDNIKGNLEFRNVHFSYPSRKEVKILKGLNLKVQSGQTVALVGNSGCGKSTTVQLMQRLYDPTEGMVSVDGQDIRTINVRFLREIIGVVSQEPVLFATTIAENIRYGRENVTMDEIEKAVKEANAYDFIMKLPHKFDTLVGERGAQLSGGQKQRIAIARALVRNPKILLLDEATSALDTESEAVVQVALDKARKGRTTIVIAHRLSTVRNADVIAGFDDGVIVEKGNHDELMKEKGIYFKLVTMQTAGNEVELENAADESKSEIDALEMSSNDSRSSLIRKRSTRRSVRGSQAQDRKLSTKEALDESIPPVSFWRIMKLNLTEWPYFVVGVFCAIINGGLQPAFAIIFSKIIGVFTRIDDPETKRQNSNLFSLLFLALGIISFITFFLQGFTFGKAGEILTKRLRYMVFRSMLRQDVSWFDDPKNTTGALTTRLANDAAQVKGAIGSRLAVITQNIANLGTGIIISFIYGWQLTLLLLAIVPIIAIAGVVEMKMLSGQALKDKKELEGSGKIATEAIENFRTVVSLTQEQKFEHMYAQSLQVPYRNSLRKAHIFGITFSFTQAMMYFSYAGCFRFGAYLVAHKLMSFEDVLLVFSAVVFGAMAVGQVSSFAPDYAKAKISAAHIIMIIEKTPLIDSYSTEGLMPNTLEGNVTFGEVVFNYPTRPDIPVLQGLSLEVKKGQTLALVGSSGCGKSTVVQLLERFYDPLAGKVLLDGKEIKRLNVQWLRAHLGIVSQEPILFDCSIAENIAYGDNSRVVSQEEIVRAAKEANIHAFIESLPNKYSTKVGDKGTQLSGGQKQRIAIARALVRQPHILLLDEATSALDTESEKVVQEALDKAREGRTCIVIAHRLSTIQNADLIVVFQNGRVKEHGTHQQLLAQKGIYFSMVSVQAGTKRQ
- Procedure Summary: MDR1-MDCKII permeability assay (P-glycoprotein efflux)
- Format: in vitro ADME
- Reported Conditions: dog, MDCK-MDR1; a-b; first value in brackets
Papp A→B overview
State the answer as a number, implicitly in ×10⁻⁶ cm/s.

Item CC(C)Nc1nnc(Nc2cc(CO)c(N3CCOCC3)c3nonc23)s1 [11a-isopropyl] ; assay system P-glycoprotein (MDR1) (Homo sapiens); Papp A→B reported as 0.568

Value sought: Papp A→B, system P-glycoprotein (MDR1) (Homo sapiens), item CNc1nnc(Nc2cc(CO)c(N3CCOCC3)c3nonc23)s1 [11a] . Result: 0.78

Record OCc1cc(Nc2nnc(N3CCCC3)s2)c2nonc2c1N1CCOCC1 [11a-pentyl] ; system P-glycoprotein (MDR1) (Homo sapiens); Papp A→B = 1.44

* * *

- Procedure Summary: In vivo pharmacokinetics in CD-1 (ICR) mice, plasma and brain, LC-MS/MS
- Reported Conditions: male, CD-1 (ICR), mouse, plasma, po, 5 mg/kg, P.O. 5 mg/kg, read-out: Plasma t1/2 (converted)
- Description: Blood and brain tissues were collected at 0, 0.08, 0.25, 0.5, 1, 2, 4, and 8 h post-administration. For acute pharmacodynamic (PD) assessments, male and female 3xTg mice received oral doses of NP-11a-isopropyl at 7.5 mg/kg or 15 mg/kg, and blood and brain samples were collected 2 h after treatment.
Measured Quantity: half-life

half-life for CC(C)Nc1nnc(Nc2cc(CO)c(N3CCOCC3)c3nonc23)s1 [11a-isopropyl] is ~43.8 min

* * *

- Tested System: recombinant AEP enzyme (Homo sapiens, UniProt Q99538)
- Sequence (Q99538 18-433, species assumed): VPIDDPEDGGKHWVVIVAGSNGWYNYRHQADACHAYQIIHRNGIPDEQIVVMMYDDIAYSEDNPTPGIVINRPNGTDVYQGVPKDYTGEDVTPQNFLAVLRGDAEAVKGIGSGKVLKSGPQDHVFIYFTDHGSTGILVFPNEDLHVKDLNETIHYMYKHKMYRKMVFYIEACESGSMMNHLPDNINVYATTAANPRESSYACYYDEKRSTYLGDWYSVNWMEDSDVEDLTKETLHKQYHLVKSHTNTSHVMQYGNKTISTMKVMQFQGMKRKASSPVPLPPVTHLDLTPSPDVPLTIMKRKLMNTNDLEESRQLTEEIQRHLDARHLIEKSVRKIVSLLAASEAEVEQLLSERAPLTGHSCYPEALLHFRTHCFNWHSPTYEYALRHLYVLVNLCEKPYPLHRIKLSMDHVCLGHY
- Procedure Summary: In vitro AEP enzymatic inhibition assay
- Assay type: biochemical
- Reported Conditions: read-out: IC50 toward recombinant AEP enzyme (in vitro)
Measured Quantity: IC50 (nM)
Respond with the bare value in nM.

Looking up OCc1cc(Nc2nnc(N3CCCC3)s2)c2nonc2c1N1CCOCC1 [11a-pentyl] , I see its IC50 listed as 14.7

* * *

- Procedure Summary: Plasma and brain concentrations after acute oral treatment of 3xTg mice
- Type: in vivo
- Reported Conditions: both sexes, mouse, plasma, 7.5 mg/kg, P.O. 7.5 mg/kg, read-out: Concentration in plasma, Serum Mean
Quick reference: concentration at 2 h of the listed items.
# unit: ng/mL | format: bare number

Compound	Unit Of Measurement	concentration at 2 h
CC(C)Nc1nnc(Nc2cc(CO)c(N3CCOCC3)c3nonc23)s1 [11a-isopropyl]	ng/mL	74.9

Proceeding to the next compound to report its concentration at 2 h.
Per the record, CNc1nnc(Nc2cc(CO)c(N3CCOCC3)c3nonc23)s1 [11a] has concentration at 2 h of 161

* * *

- Procedure Summary: In vivo pharmacokinetics in CD-1 (ICR) mice, plasma and brain, LC-MS/MS
- Reported Conditions: male, CD-1 (ICR), plasma, po; mouse, P.O. 5 mg/kg
- Excerpt: Blood and brain tissues were collected at 0, 0.08, 0.25, 0.5, 1, 2, 4, and 8 h post-administration. For acute pharmacodynamic (PD) assessments, male and female 3xTg mice received oral doses of NP-11a-isopropyl at 7.5 mg/kg or 15 mg/kg, and blood and brain samples were collected 2 h after treatment.
Measured Quantity: Cmax (ng/mL)
Form entry: value (ng/mL) — number only.

Note to self: Cmax recorded for CC(C)Nc1nnc(Nc2cc(CO)c(N3CCOCC3)c3nonc23)s1 [11a-isopropyl] was 4770

* * *

- Procedure Summary: Plasma and brain concentrations after acute oral treatment of 3xTg mice
- Assay type: in vivo
- Reported Conditions: both sexes, mouse, brain, 7.5 mg/kg, P.O. 7.5 mg/kg, read-out: Concentration in brain, Brain Sample (single animal)
Measured Quantity: concentration at 2 h (ng/g)
Give your result in ng/g as a bare value.

Record summary for CC(C)Nc1nnc(Nc2cc(CO)c(N3CCOCC3)c3nonc23)s1 [11a-isopropyl] : reported concentration at 2 h = 14.4

* * *

- Procedure Summary: Stability in mouse liver microsomes
- Format: in vitro ADME
- Reported Conditions: read-out: Stability-Microsomes T1/2
// reported half-life for each item listed

Some entries whose results are on file:
Compound	half-life
CC(C)Nc1nnc(Nc2cc(CO)c(N3CCOCC3)c3nonc23)s1 [11a-isopropyl]	> 27.7 min
OCc1cc(Nc2nnc(N3CCCC3)s2)c2nonc2c1N1CCOCC1 [11a-pentyl]	4.59 min

Now look at this entry.
Documented half-life of CNc1nnc(Nc2cc(CO)c(N3CCOCC3)c3nonc23)s1 [11a] : 116 min

* * *

Recorded measurements of half-life, one per entry
- Procedure Summary: Stability in human liver microsomes
- Assay type: in vitro ADME
- Reported Conditions: read-out: Stability-Microsomes T1/2

Molecule	half-life
CNc1nnc(Nc2cc(CO)c(N3CCOCC3)c3nonc23)s1 [11a]	> 3 h

So for CC(C)Nc1nnc(Nc2cc(CO)c(N3CCOCC3)c3nonc23)s1 [11a-isopropyl] , the logged half-life turned out to be > 4 h

// OCc1cc(Nc2nnc(N3CCCC3)s2)c2nonc2c1N1CCOCC1 [11a-pentyl] : half-life value = 0.508 h

* * *

- Procedure Summary: Stability in mouse liver microsomes
- Assay type: in vitro ADME
Measured Quantity: microsomal CLint (µL/min/mg)
# value in µL/min/mg; strip the unit string

Quick note, microsomal CLint for CNc1nnc(Nc2cc(CO)c(N3CCOCC3)c3nonc23)s1 [11a] landed at 19.9

The measured microsomal CLint associated with OCc1cc(Nc2nnc(N3CCCC3)s2)c2nonc2c1N1CCOCC1 [11a-pentyl] reads 302

* * *

- Procedure Summary: In vivo pharmacokinetics in CD-1 (ICR) mice, plasma and brain, LC-MS/MS
- Reported Conditions: male, CD-1 (ICR), plasma, iv; mouse, I.V. 2 mg/kg; read-out: Plasma MRT (0-t)
Measured Quantity: MRT last
Number plus unit, in that order.

// sample CC(C)Nc1nnc(Nc2cc(CO)c(N3CCOCC3)c3nonc23)s1 [11a-isopropyl] , its MRT last was 33.4 min

* * *

- Procedure Summary: In vivo pharmacokinetics in CD-1 (ICR) mice, plasma and brain, LC-MS/MS
- Reported Conditions: male, CD-1 (ICR), plasma, po; mouse, P.O. 5 mg/kg; read-out: Plasma Tmax
Measured Quantity: Tmax (min)
Kindly answer with a numeric value in min, unit omitted.

Please fill in: Tmax reported for CC(C)Nc1nnc(Nc2cc(CO)c(N3CCOCC3)c3nonc23)s1 [11a-isopropyl] = 8.22

* * *

- Procedure Summary: Stability in rat hepatocytes
- Type: in vitro ADME
- Reported Conditions: read-out: Stability-Hepatocytes T1/2
Measured Quantity: half-life

For CNc1nnc(Nc2cc(CO)c(N3CCOCC3)c3nonc23)s1 [11a] the compound record lists half-life as > 8 h

* * *

- Procedure Summary: In vivo pharmacokinetics in CD-1 (ICR) mice, plasma and brain, LC-MS/MS
- Reported Conditions: male, CD-1 (ICR), plasma, po; mouse, P.O. 5 mg/kg; read-out: Plasma MRT (0-t)
Measured Quantity: MRT last (min)
Answer format: numeric, min implied, no suffix.

The recorded MRT last for CC(C)Nc1nnc(Nc2cc(CO)c(N3CCOCC3)c3nonc23)s1 [11a-isopropyl] is 50.9

* * *

- Procedure Summary: In vivo pharmacokinetics in CD-1 (ICR) mice, plasma and brain, LC-MS/MS
- Reported Conditions: male, CD-1 (ICR), brain, iv; mouse, I.V. 2 mg/kg; read-out: Brain MRT (0-t)
Measured Quantity: MRT last (h)
Give your result in h as a bare value.

response.value for CC(C)Nc1nnc(Nc2cc(CO)c(N3CCOCC3)c3nonc23)s1 [11a-isopropyl] (field: MRT last) = 2.39

* * *

- Procedure Summary: Stability in mouse hepatocytes
- Assay type: in vitro ADME
- Reported Conditions: read-out: Stability-Hepatocytes T1/2
Measured Quantity: half-life (h)
Write down the numeric answer in h and omit the unit.

Just so you know, measured half-life for CC(C)Nc1nnc(Nc2cc(CO)c(N3CCOCC3)c3nonc23)s1 [11a-isopropyl] came out at 2.55
